Target: T1, full-length human SIRPαV1 (NP_542970.1) on cells (human, UniProt P78324 31-504)
T1 construct: one molecule for CHO-K1 and Expi-CHO transfectants (NP_542970.1) and for endogenous V1 on U-937 cells and on CD14+ monocytes of V1/V1 donors; also called CHO-hSIRPαV1; αV1 WT
T1 sequence (P78324 31-504): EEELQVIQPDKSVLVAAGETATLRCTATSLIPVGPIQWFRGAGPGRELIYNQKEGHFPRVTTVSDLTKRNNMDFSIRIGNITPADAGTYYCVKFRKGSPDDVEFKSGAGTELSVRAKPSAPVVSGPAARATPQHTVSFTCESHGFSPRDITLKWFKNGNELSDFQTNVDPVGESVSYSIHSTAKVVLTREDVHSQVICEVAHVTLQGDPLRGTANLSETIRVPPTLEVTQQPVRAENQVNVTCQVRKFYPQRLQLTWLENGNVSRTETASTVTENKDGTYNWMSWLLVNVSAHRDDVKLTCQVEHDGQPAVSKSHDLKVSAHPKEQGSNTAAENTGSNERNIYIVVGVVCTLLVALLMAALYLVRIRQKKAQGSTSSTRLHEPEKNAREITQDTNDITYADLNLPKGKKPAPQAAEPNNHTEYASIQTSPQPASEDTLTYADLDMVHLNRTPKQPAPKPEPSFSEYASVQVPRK
Assay: flow cytometry, CD14+ monocytes V1V1
pEC50: −log10 of the molar value.
Entry flag: Satisfied if pEC50 reaches 9; Not satisfied if it does not.

[[record]]
binder = "Antibody D (antibody, human IgG1, kappa, L234A L235A, V domains shown) VH: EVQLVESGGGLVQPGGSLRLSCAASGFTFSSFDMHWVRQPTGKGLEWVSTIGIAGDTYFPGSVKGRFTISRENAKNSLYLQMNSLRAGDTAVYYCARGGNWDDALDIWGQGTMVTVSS VL: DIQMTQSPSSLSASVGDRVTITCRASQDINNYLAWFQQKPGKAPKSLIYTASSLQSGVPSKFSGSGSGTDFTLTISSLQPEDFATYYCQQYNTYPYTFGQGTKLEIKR"
class_assignment = "Satisfied"

[[record]]
binder = "anti-SIRPα antibody SIRP AB11 (antibody, V domains shown) VH: QVQLVQSGAEVKKPGASVKVSCKASGYTFRGYGISWVRQAPGQGLEWMGWISAYGGETNYAQKLQGRVTMTTDTSTSTAYMELRSLRSDDTAVYYCAREAGSSWYDFDLWGRGTLVTVSS VL: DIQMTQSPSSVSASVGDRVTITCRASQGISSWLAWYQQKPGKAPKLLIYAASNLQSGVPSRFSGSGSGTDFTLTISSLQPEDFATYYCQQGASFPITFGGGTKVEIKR"
class_assignment = "Satisfied"

[[record]]
binder = "Antibody B (antibody, human IgG1, kappa, L234A L235A, V domains shown) VH: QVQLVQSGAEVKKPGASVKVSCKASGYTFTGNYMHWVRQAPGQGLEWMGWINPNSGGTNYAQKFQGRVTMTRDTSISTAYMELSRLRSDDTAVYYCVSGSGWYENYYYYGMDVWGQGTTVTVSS VL: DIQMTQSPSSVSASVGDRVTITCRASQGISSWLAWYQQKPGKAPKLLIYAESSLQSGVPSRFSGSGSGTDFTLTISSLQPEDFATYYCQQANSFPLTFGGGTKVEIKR"
class_assignment = "Not satisfied"

[[record]]
binder = "Anti-SIRPα antibody KWAR23 (antibody, V domains shown) VH: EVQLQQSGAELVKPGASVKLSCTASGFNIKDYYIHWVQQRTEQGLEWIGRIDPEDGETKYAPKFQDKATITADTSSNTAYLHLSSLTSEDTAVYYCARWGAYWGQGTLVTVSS VL: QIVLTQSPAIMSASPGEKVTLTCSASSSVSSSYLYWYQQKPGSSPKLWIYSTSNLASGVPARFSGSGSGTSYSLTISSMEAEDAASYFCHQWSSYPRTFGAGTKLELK"
class_assignment = "Satisfied"


Reference for the values: patent US20230012273A1
